System: 8505C
Test: Cytotoxicity against human 8505C cells assessed as cell survival after 96 hrs by SRB assay
Assay type: functional, cell-based
Examples of molecules with documented pEC50 follow.
// field semantics: pEC50 = negative decimal log of concentration (mol/L)

A selection of reference data follows.
| SAMPLE_SMILES | pEC50 |
| --- | --- |
| COC(=O)[C@]12CC[C@@H](C)[C@H](C)[C@H]1C1=CC(=O)[C@@H]3[C@@]4(C)CCC(=O)C(C)(C)[C@@H]4CC[C@@]3(C)[C@]1(C)CC2 | 5.36 |
| C=C1C[C@]2(C)[C@H]3C(=O)C=C4[C@@H]5CC(C)(C)CC[C@]5(C(=O)OC)CC[C@@]4(C)[C@]3(C)CC[C@H]2C(C)(C)C1=O | 4.81 |
| CC1(C)[C@@H](O)CC[C@]2(C)[C@H]3C(=O)C=C4[C@@H]5C[C@@](C)(C(=O)O)CC[C@]5(C)CC[C@@]4(C)[C@]3(C)CC[C@@H]12 | 4.06 |
| C=C1C[C@]2(C)[C@H]3C(=O)C=C4[C@@H]5[C@@H](C)[C@H](C)CC[C@]5(C(=O)OC)CC[C@@]4(C)[C@]3(C)CC[C@H]2C(C)(C)C1=O | 5.79 |

Shift focus to the following entry.
Q: Give a short answer stating reported pEC50 for C[C@H]1[C@H](C)CC[C@]2(C(=O)O)CC[C@]3(C)C(=CC[C@@H]4[C@@]5(C)CC[C@H](O)C(C)(C)[C@@H]5CC[C@]43C)[C@H]12 .
Ans: 4.87

====

System: A549
Assay: Cytotoxicity against human A549 cells assessed as cell survival after 96 hrs by SRB assay
Assay type: functional, cell-based
Settings: A549, 96 h
Examples of compounds with documented pEC50 follow.
// field semantics: pEC50 = negative decimal log of concentration (mol/L)

A selection of reference data follows.
| SAMPLE_SMILES | pEC50 |
| --- | --- |
| CC1(C)[C@@H](O)CC[C@]2(C)[C@H]3C(=O)C=C4[C@@H]5C[C@@](C)(C(=O)O)CC[C@]5(C)CC[C@@]4(C)[C@]3(C)CC[C@@H]12 | 4.08 |
| COC(=O)[C@@]1(C)CC[C@]2(C)CC[C@]3(C)C(=CC(=O)[C@@H]4[C@@]5(C)CCC(=O)C(C)(C)[C@@H]5CC[C@]43C)[C@@H]2C1 | 4.58 |
| C=C1C[C@]2(C)[C@H]3C(=O)C=C4[C@@H]5CC(C)(C)CC[C@]5(C(=O)OC)CC[C@@]4(C)[C@]3(C)CC[C@H]2C(C)(C)C1=O | 4.75 |
| COC(=O)[C@]12CC[C@@H](C)[C@H](C)[C@H]1C1=CC(=O)[C@@H]3[C@@]4(C)CCC(=O)C(C)(C)[C@@H]4CC[C@@]3(C)[C@]1(C)CC2 | 5.42 |
| CC(=O)[C@@H]1CC[C@]2(C(=O)O)CC[C@]3(C)[C@H](CC[C@@H]4[C@@]5(C)CC[C@H](O)C(C)(C)[C@@H]5CC[C@]43C)[C@@H]12 | 5.81 |

Q: Give a short answer stating reported pEC50 for C=C1C[C@]2(C)[C@H]3C(=O)C=C4[C@@H]5[C@@H](C)[C@H](C)CC[C@]5(C(=O)OC)CC[C@@]4(C)[C@]3(C)CC[C@H]2C(C)(C)C1=O .
Ans: 5.80

Q: Give a short answer stating reported pEC50 for C=C1C[C@]2(C)[C@H]3CC=C4[C@@H]5[C@@H](C)[C@H](C)CC[C@]5(C(=O)OC)CC[C@@]4(C)[C@]3(C)CC[C@H]2C(C)(C)C1=O .
Ans: 5.53

Q: Give a short answer stating reported pEC50 for C[C@H]1[C@H](C)CC[C@]2(C(=O)O)CC[C@]3(C)C(=CC[C@@H]4[C@@]5(C)CC[C@H](O)C(C)(C)[C@@H]5CC[C@]43C)[C@H]12 .
Ans: 4.81

Data provenance is ChEMBL document CHEMBL3612031.
